Origin of measurements: patent US12059422B2

Biological target: PI3K delta (Homo sapiens, UniProt O00329)
Sequence (O00329 whole entry, species assumed): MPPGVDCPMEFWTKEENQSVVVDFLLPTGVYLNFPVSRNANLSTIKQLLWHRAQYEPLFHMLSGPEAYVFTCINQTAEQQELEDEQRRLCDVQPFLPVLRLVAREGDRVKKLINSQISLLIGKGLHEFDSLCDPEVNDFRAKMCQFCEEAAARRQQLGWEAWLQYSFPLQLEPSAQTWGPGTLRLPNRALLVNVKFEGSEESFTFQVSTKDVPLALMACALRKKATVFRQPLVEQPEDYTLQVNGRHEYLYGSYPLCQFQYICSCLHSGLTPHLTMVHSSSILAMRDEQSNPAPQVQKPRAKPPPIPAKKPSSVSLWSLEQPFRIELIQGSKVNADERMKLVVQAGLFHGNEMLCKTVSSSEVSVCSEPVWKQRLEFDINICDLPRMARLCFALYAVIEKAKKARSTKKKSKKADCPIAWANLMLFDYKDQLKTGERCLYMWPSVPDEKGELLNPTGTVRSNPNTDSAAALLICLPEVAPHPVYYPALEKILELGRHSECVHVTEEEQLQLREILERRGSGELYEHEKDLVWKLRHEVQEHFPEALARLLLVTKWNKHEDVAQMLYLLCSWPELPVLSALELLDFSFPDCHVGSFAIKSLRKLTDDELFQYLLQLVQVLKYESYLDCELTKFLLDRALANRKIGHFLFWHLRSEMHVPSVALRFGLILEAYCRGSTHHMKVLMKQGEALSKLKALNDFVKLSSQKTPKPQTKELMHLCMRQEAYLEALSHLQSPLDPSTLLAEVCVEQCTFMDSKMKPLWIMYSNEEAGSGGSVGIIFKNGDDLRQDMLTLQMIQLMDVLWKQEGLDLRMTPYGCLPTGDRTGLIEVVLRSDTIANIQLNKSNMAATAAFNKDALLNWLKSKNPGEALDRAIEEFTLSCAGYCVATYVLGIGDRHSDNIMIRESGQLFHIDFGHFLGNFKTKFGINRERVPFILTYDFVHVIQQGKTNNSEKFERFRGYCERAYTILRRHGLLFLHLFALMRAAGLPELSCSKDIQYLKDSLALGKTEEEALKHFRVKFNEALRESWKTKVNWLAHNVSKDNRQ
Sequence (P27986 whole entry partner, species assumed): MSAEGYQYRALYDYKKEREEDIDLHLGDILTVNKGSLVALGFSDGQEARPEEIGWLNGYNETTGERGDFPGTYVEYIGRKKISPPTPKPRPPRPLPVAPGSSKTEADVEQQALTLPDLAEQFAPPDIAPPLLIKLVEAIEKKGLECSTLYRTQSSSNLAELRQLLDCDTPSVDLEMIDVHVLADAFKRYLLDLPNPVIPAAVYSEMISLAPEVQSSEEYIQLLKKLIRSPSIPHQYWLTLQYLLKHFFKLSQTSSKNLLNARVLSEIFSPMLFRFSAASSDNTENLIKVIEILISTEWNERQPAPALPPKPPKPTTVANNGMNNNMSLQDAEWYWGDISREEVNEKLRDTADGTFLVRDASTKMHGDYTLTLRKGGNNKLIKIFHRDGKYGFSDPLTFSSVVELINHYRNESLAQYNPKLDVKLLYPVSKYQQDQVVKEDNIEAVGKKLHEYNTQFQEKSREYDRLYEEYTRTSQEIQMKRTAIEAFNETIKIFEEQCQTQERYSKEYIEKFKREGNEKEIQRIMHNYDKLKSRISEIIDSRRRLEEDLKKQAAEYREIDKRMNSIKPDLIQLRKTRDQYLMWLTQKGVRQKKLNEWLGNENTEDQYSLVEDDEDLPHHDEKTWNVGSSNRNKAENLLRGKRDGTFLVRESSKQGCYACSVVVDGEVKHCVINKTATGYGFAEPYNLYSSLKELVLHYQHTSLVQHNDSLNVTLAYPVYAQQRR
Assay: Luciferase-based luminescence assay (KinaseGlo), PI3K delta enzymatic activity
Conditions: inhibition of enzymatic activity, KinaseGlo, 25 μM ATP; read-out: IC50 p110δ
pIC50: −log10 of the molar value.
measurement-type: pIC50

[ask] // lookup pIC50 for COC(=O)[C@@H](Nc1nc(N2CCOCC2)nc(-n2c(C(F)F)nc3ccccc32)n1)c1ccccc1 [Compound A12]
[reply] 6.30 to 6.70

[ask] // lookup pIC50 for CC(C)(Cc1ccccc1-c1ccncc1)Nc1nc(N2CCOCC2)nc(-n2c(C(F)F)nc3ccccc32)n1 [Compound A33]
[reply] ≥ 7.00

[ask] // lookup pIC50 for CC(C)(Nc1nc(N2CCOCC2)nc(-n2c(C(F)F)nc3ccccc32)n1)c1ccc2ccccc2c1 [Compound A13]
[reply] < 6.30

[ask] // lookup pIC50 for CC(Nc1nc(N2CCOCC2)nc(-n2c(C(F)F)nc3ccccc32)n1)c1ccccc1 (stereo not shown) [Compound A1]
[reply] ≥ 7.00
